molecular target: T1, Human C5 (human, UniProt P01031 19-1676); experiment: SPR, mAb captured by anti-hFc, 37C
T1 construct: The natural protein has a beta and an alpha chain; also called complement factor 5; complement component 5
Quantity Measured: pKd
pKd field: float, defined as -log10 of concentration (mol/L).

Below, each entry is followed by its recorded pKd result.
Binder	pKd
H4H12166P8 (antibody, human IgG4, V domains shown, human IgG4 Fc with S108P hinge mutation) VH: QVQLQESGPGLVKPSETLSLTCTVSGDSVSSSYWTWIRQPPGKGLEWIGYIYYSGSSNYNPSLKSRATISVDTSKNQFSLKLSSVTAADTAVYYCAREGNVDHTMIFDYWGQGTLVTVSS VL: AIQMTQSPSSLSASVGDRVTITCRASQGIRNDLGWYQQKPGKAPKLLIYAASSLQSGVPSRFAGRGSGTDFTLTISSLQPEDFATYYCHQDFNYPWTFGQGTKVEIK	8.51
H4H12166P10 (antibody, human IgG4, V domains shown, human IgG4 Fc with S108P hinge mutation) VH: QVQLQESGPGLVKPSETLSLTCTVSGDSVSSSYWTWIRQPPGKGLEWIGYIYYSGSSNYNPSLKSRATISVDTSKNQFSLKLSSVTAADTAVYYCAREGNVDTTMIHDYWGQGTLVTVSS VL: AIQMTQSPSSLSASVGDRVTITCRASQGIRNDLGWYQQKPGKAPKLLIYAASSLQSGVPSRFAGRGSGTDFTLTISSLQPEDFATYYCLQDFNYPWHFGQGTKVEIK	7.86
H4H12166P9 (antibody, human IgG4, V domains shown, human IgG4 Fc with S108P hinge mutation) VH: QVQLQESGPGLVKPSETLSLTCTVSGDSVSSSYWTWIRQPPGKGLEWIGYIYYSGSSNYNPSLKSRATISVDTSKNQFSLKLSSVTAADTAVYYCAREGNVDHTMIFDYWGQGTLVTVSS VL: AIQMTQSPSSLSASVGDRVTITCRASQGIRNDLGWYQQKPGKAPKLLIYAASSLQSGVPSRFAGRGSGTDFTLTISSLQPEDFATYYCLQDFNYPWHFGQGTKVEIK	8.77
H4H12161P (antibody, human IgG4, V domains shown) VH: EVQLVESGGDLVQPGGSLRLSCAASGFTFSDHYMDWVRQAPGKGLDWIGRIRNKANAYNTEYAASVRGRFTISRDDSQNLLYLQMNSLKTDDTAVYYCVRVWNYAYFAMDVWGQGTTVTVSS VL: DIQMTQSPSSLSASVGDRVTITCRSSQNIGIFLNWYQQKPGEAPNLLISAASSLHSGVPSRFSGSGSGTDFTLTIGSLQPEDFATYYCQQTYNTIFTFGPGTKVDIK	9.00

Proceed to the following item.
[ask] Need pKd, item H4H12167P (antibody, human IgG4, V domains shown) VH: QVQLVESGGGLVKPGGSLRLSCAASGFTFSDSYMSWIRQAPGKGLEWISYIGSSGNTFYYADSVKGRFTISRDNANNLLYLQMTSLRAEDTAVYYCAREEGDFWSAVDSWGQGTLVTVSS VL: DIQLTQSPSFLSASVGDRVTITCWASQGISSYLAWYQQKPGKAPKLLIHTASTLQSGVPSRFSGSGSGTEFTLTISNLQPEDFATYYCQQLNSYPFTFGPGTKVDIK
[reply] 9.53
